- ASSAY NOTES: Inhibition of mouse GAT-2 expressed in HEK293 cells assessed as decrease in [3H]GABA uptake preincubated for 25 mins followed by [3H]GABA addition and measured after 10 mins by scintillation counting analysis
pIC50: −log10 of the molar value.
READOUT KIND: pIC50

# annotated cases, reported pIC50 shown
COMPOUND: O=C(O)[C@@H]1CCCN(CCON=Cc2ccccc2-c2ccc(Cl)cc2Cl)C1
READOUT KIND: pIC50
TEST VALUE: 4.37
--
COMPOUND: O=C(O)C1CCCN(CCON=Cc2ccccc2-c2ccc(Cl)cc2Cl)C1 (centres undefined)
READOUT KIND: pIC50
TEST VALUE: 4.34

(1) O=C(O)C1CCCN(CCON=Cc2cc(F)ccc2-c2ccc(Cl)cc2Cl)C1 (centres undefined)
(2) O=C(O)C1CCCN(CCON=Cc2sccc2-c2ccc(Cl)cc2Cl)C1 (centres undefined)
Of 1 and 2 , which shows the smaller pIC50 value? When you have decided, please share the label of that item. 2
